Target: T1, mouse ACVR2A (mouse, UniProt P27038 20-135, limits assumed); further: test concentration or dose not given here
T1 construct: coated antigen of the initial ELISA
T1 sequence (P27038 20-135 limits assumed): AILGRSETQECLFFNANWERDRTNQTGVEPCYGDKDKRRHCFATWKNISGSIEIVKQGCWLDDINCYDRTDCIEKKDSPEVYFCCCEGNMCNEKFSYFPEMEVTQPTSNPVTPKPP
Test: ELISA
Description: The binding of ACVR2A-specific monoclonal antibodies to human ACVR2A, mouse ACVR2A, biotinylated goat anti-human kappa light chain (positive control) and human Fc (negative control) were determined by ELISA.
Please provide measured optical density for the entries that follow.

Lab note: 369_A07 (antibody, V domains shown, Group III) VH: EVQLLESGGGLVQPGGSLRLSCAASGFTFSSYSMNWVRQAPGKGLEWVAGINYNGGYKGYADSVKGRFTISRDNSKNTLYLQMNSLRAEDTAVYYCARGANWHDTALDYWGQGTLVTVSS VL: DIQMTQSPSSLSASVGDRVTITCRASQSILSYLNWYQQKPGKAPKLVIYAATSRASGVPSRFSGSGSGTDFTLTISSLQPEDFATYYCQQSYESPLTFGGGTKVEIK gave optical density of 3.56 OD

// 374_C01 (antibody, V domains shown, Group III) VH: EVQLLESGGGLVQPGGSLRLSCAASGFTFDSYGMNWVRQAPGKGLEWVSGINYNSGYKSYADSVKGRFTISRDNSKNTLYLQMNSLRAEDTAVYYCARGANWHDTALDYWGQGTLVTVSS VL: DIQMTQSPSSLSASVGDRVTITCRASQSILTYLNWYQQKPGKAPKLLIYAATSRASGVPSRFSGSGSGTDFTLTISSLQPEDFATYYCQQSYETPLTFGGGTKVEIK : optical density value = 2.93 OD

Form: binder = 368_H02 (antibody, V domains shown, Group III) VH: EVQLLESGGGLVQPGGSLRLSCAASGFTFSSYGMNWVRQAPGKGLEWVAGINYNSGYTSYADSVKGRFTISRDNSKNTLYLQMNSLRAEDTAVYYCARGANWHDTALDYWGQGTLVTVSS VL: DIQMTQSPSSLSASVGDRVTITCRASQSIVTYLNWYQQKPGKAPKLVIYAATSRASGVPSRFSGSGSGTDFTLTISSLQPEDFATYYCQQSYESPLTFGGGTKVEIK ; optical density = 2.54 OD
